- PROCEDURE DETAILS: in vitro
- COND: human, hela cells, % viability
The entries below come with measured viability at 28.5 h, 10 µM values attached.
# unit: % | format: bare number

CC(C(=O)c1ccc(-c2ccccc2F)cc1)N1CCN(c2ccc(C#N)cc2)CC1 (centres unmarked) [CBK074706]	92
CN1CCN(c2cccc(-c3cc4ccccc4s3)n2)CC1 [CBK037019]	102
Cc1cccc(CN(CCCN)C(=O)Nc2ccc(C(C)(C)C)cc2)n1 [CBK033365C]	98.3

Returns the measured viability at 28.5 h, 10 µM for the input molecule. Input: O=S1(=O)C=C(N2CCCCCC2)CC1 [CBK025571C] 85.7

Returns the measured viability at 28.5 h, 10 µM for the input molecule. Input: Cc1cc(C(F)(F)F)nn1CCNC(=O)c1cn2ccsc2n1 [CBK307260] 112

Returns the measured viability at 28.5 h, 10 µM for the input molecule. Input: COC(=O)c1ccc(S(=O)(=O)N2CCC(C)CC2)cc1 [CBK070414] 98.1

Returns the measured viability at 28.5 h, 10 µM for the input molecule. Input: COc1cccc(CNC(=O)NC(=O)C2CCN(C)CC2)c1 [CBK034828] 91.9

Returns the measured viability at 28.5 h, 10 µM for the input molecule. Input: CC(C)c1ccc(/C=C/C(=O)NCCN2CCOCC2)cc1 [CBK149631] 92.6
